Biological target: equine FcRn (large alpha subunit p51) / equine beta-2-microglobulin complex, biotinylated (equine) (UniProt P30441)
Test: SPR (Biacore), pH 6
pKd: −log10 of the molar value.
ENDPOINT_NAME: pKd

BINDER: equine IgG1 G426I (antibody, part only; not given: variable domains, not shown: another chain or arm of the molecule) constant: ASTTAPKVFALAPGCGTTSDSTVALGCLVSGYFPEPVKVSWNSGSLTSGVHTFPSVLQSSGFYSLSSMVTVPASTWTSETYICNVVHAASNFKVDKRIEPIPDNHQKVCDMSKCPKCPAPELLGGPSVFIFPPNPKDTLMITRTPEVTCVVVDVSQENPDVKFNWYMDGVEVRTATTRPKEEQFNSTYRVVSVLRIQHQDWLSGKEFKCKVNNQALPQPIERTITKTKGRSQEPQVYVLAPHPDELSKSKVSVTCLVKDFYPPEINIEWQSNGQPELETKYSTTQAQQDSDGSYFLYSKLSVDRNRWQQGTTFTCIVMHEALHNHYTQKNVSKNPGK
REPORTED_MEASUREMENT: 8.02
--
BINDER: equine IgG4 M428W (antibody, part only; not given: variable domains, not shown: another chain or arm of the molecule) constant: ASTTAPKVFPLASHSAATSGSTVALGCLVSSYFPEPVTVSWNSGALTSGVHTFPSVLQSSGLYSLSSMVTVPASSLKSQTYICNVAHPASSTKVDKKIVIKECNGGCPAECLQVGPSVFIFPPKPKDVLMISRTPTVTCVVVDVGHDFPDVQFNWYVDGVETHTATTEPKQEQFNSTYRVVSVLPIQHKDWLSGKEFKCKVNNKALPAPVERTISKPTGQPREPQVYVLAPHRDELSKNKVSVTCLVKDFYPTDIDIEWKSNGQPEPETKYSTTPAQLDSDGSYFLYSKLTVETNRWQQGTTFTCAVWHEALHNHYTEKSVSKSPGK
REPORTED_MEASUREMENT: 7.51
--
BINDER: equine IgG4 K311N (antibody, part only; not given: variable domains, not shown: another chain or arm of the molecule) constant: ASTTAPKVFPLASHSAATSGSTVALGCLVSSYFPEPVTVSWNSGALTSGVHTFPSVLQSSGLYSLSSMVTVPASSLKSQTYICNVAHPASSTKVDKKIVIKECNGGCPAECLQVGPSVFIFPPKPKDVLMISRTPTVTCVVVDVGHDFPDVQFNWYVDGVETHTATTEPKQEQFNSTYRVVSVLPIQHNDWLSGKEFKCKVNNKALPAPVERTISKPTGQPREPQVYVLAPHRDELSKNKVSVTCLVKDFYPTDIDIEWKSNGQPEPETKYSTTPAQLDSDGSYFLYSKLTVETNRWQQGTTFTCAVMHEALHNHYTEKSVSKSPGK
REPORTED_MEASUREMENT: 7.39
